- Tested on: S. MRSA
- ASSAY_PROTOCOL: microbe, parasite or virus in culture
- Format: cell-based
- ASSAY_SETUP: Staphylococcus aureus, MRSA, 3 μM; read-out: S. MRSA 3 μM (growth inhibition)
Assign inhibition at 3 µM to each entry below.
Reply with just the number (in %).

(Q) Respond only with inhibition at 3 µM recorded for O=C1NC(=O)C(=Cc2ccc(Br)s2)C(=O)N1
(A) 13.6

(Q) Respond only with inhibition at 3 µM recorded for O=C(O)C(Cc1ccccc1)N1C(=O)/C(=C\c2ccc(-c3ccc(Br)cc3)s2)NC1=S (centres unmarked)
(A) -19.2

(Q) Respond only with inhibition at 3 µM recorded for O=C(O)C(Cc1ccccc1)N1C(=O)/C(=C\c2ccc(-c3ccc(Br)c(Cl)c3)o2)NC1=S (centres unmarked)
(A) 17.9

(Q) Respond only with inhibition at 3 µM recorded for CCc1ccccc1N1C(=O)/C(=C/c2ccc(-c3cc(C(=O)O)ccc3Cl)o2)C(=O)NC1=S
(A) -2.94

(Q) Respond only with inhibition at 3 µM recorded for O=C(O)C(Cc1ccccc1)N1C(=O)/C(=C\c2ccc(-c3ccc(F)cc3)s2)NC1=S (centres unmarked)
(A) -15.8

###

Assign inhibition at 30 µM to each entry below.
- System: B. Anthracis
- ASSAY_PROTOCOL: microbe, parasite or virus in culture
- Type: cell-based
- ASSAY_SETUP: Bacillus anthracis, 30 μM; read-out: B. Anthracis 30 μM (growth inhibition)
Reply with just the number (in %).

(Q) Respond only with inhibition at 30 µM recorded for O=C([O-])C(Cc1ccccc1)N1C(=O)/C(=C\c2ccc(-c3cccc(Cl)c3)o2)NC1=S.[Na+] (stereo not shown) [Cmpd 67]
(A) 87.6

(Q) Respond only with inhibition at 30 µM recorded for CN1C(=O)/C(=C/c2ccc(-c3ccc(Br)c(Cl)c3)o2)C(=O)NC1=S [Cmpd 29]
(A) 90.1

(Q) Respond only with inhibition at 30 µM recorded for O=C(O)CCCCCN1C(=O)/C(=C2/C(=O)Nc3ccc(Br)cc32)SC1=S [Cmpd 4]
(A) 91.2

(Q) Respond only with inhibition at 30 µM recorded for O=C(O)[C@H](Cc1ccccc1)N1C(=O)/C(=C\c2ccc(-c3cc(C(F)(F)F)ccc3Cl)o2)NC1=S [Cmpd 53]
(A) 92.5
